Measured MIC by item
tested on: S. aureus MP-12; assay: Broth dilution MIC determination (CLSI), S. aureus MP-12; format: cell-based; conditions: Staphylococcus aureus, MP12; strain MP-12, broth dilution

CCCN1CC([C@H]2COC(=O)C(C)(C)C(=O)[C@H](C)[C@@H](O[C@@H]3O[C@H](C)C[C@H](N(C)C)[C@H]3O)[C@](C)(OC)C[C@@H](C)CN2C)C1 = > 32 µg/mL
CO[C@]1(C)C[C@@H](C)CN(C)[C@H]([C@@H]2CCN(C(=O)CN(C)C)C2)COC(=O)C(C)(C)C(=O)[C@H](C)[C@H]1O[C@@H]1O[C@H](C)C[C@H](N(C)C)[C@H]1O = > 32 µg/mL

Record CCN(C)[C@H]1C[C@@H]([C@@H]2COC(=O)C(C)(C)C(=O)[C@H](C)[C@@H](O[C@@H]3O[C@H](C)C[C@H](N(C)C)[C@H]3O)[C@](C)(OC)C[C@@H](C)CN2C)C1 , field MIC: > 32 µg/mL

Record CO[C@]1(C)C[C@@H](C)CN(C)[C@H](C2CN(CC(=O)NCc3ccccc3)C2)COC(=O)C(C)(C)C(=O)[C@H](C)[C@H]1O[C@@H]1O[C@H](C)C[C@H](N(C)C)[C@H]1O , field MIC: 4 to 32 µg/mL

Record CO[C@]1(C)C[C@@H](C)CN(C)[C@H](C2CCNCC2)[C@H](C)OC(=O)C(C)(C)C(=O)[C@H](C)[C@H]1O[C@@H]1O[C@H](C)C[C@H](N(C)C)[C@H]1O , field MIC: > 32 µg/mL

Record CO[C@]1(C)C[C@@H](C)CN(C)[C@H](C2CCN(C(=O)CNCC(C)C)CC2)COC(=O)C(C)(C)C(=O)[C@H](C)[C@H]1O[C@@H]1O[C@H](C)C[C@H](N(C)C)[C@H]1O , field MIC: > 32 µg/mL

Record CO[C@]1(C)C[C@@H](C)CN(C)[C@H]([C@H]2CCN(C)C2)COC(=O)C(C)(C)C(=O)[C@H](C)[C@H]1O[C@@H]1O[C@H](C)C[C@H](N(C)C)[C@H]1O , field MIC: > 32 µg/mL
